# test_target: UniProt Q13231
# Sequence (Q13231 whole entry): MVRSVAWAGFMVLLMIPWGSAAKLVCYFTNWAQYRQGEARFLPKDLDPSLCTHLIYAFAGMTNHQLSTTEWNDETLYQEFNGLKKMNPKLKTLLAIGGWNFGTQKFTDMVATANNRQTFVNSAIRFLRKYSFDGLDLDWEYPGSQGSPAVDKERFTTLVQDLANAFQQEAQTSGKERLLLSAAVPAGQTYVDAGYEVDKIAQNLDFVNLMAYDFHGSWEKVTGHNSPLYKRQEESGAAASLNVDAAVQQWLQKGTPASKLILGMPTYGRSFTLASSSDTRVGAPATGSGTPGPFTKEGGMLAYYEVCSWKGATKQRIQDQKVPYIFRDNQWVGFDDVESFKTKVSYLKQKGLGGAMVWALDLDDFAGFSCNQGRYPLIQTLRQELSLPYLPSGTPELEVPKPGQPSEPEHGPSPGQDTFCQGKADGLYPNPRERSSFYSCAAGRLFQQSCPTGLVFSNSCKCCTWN
# method_description: Inhibition of full-length C-terminal his-tagged human CHIT1 expressed in CHOK1 cells assessed as reduction in chitinolytic activity using 4-methylumbelliferyl-beta-D-N,N',N\"-triacetylchitotrioside as substrate after 60 mins by fluorometric assay
Listed compounds paired with reported pIC50
Value format note: pIC50 is -log10 of concentration (mol/L); just state the number.

# annotated cases, reported pIC50 shown
1) Nc1n[nH]c(N2CCC(N(CCc3ccc(Cl)cc3)CC3CCCO3)CC2)n1 (centres undefined) :: 7.57
2) Nc1n[nH]c(N2CCC(N(CCc3ccc(Cl)cc3)CC3CCCCO3)CC2)n1 (centres undefined) :: 7.68
3) CC(=O)NCCN(CCc1ccc(Cl)cc1)C1CCN(c2nc(N)n[nH]2)CC1 :: 6.31
4) CO[C@@H](C)CN(CCc1ccc(Cl)cc1)C1CCN(c2nc(N)n[nH]2)CC1 :: 7.36
5) COCCN(CCc1ccc(Cl)cc1)C1CCN(c2nc(N)n[nH]2)CC1 :: 7.08
6) Nc1n[nH]c(N2CCC(N(CCc3ccc(Cl)cc3)C3COC3)CC2)n1 :: 6.74
7) COC(C)(C)CN(CCc1ccc(Cl)cc1)C1CCN(c2nc(N)n[nH]2)CC1 :: 6.30
8) Nc1nnc(N2CCC(N3CCOC[C@@H]3Cc3ccc(Cl)cc3)CC2)[nH]1 :: 7.32
9) CO[C@H](C)CN(CCc1ccc(Cl)cc1)C1CCN(c2nc(N)n[nH]2)CC1 :: 6.28
10) CO[C@H]1CN(C2CCN(c3nnc(N)[nH]3)CC2)[C@H]1Cc1ccc(Cl)cc1 :: 6.24

Give the measured pIC50 of Nc1n[nH]c(N2CCC(N3CCC(c4ccc(Cl)cc4)C3)CC2)n1 (centres undefined) .
4.71

---

# method_description: Lipophilicity, logD of the compound at pH 7.4
# Format: physicochemical
# assay_conditions: buffer
Checkbox rule: logD lower than 1 = true; logD not lower than 1 = false.

Check out these entries, answers already filled in.
1) Nc1nnc(N2CCC(N3CCCC[C@@H]3Cc3ccc(Cl)cc3)CC2)[nH]1 :: false
2) Nc1nnc(N2CCC(N3CCOC[C@@H]3Cc3ccc(Cl)cc3)CC2)[nH]1 :: false
3) CO[C@H]1CN(C2CCN(c3nnc(N)[nH]3)CC2)[C@H]1Cc1ccc(Cl)cc1 :: false
4) CO[C@H]1C[C@H](Cc2ccc(Cl)cc2)N(C2CCN(c3nnc(N)[nH]3)CC2)C1 :: false
5) Nc1nnc(N2CCC(N3CCC[C@@H]3Cc3ccc(Cl)cc3)CC2)[nH]1 :: false
6) CO[C@@H]1C[C@H](Cc2ccc(Cl)cc2)N(C2CCN(c3n[nH]c(N)n3)CC2)C1 :: false
7) Nc1nc(N2CCC(N3C[C@H](O)C[C@@H]3Cc3ccc(Cl)cc3)CC2)n[nH]1 :: true

Would you kindly look at the next entry?
Dear colleague, could you confirm whether logD of Nc1nnc(N2CCC(N3C[C@@H](O)C[C@@H]3Cc3ccc(Cl)cc3)CC2)[nH]1 falls below 1? Thanks.
true

---

# method_description: Oral bioavailability in BALB/c mouse at 10 mg/kg measured after 24 hrs by LC/MS/MS analysis
# Assay type: ADME, organism-based
# assay_conditions: in vivo
observed_property: bioavailability (%)
The response must be a number in % with no trailing unit.

I would be grateful if you could share the reported bioavailability for Nc1nnc(N2CCC(N3CCOC[C@@H]3Cc3ccc(Cl)cc3)CC2)[nH]1 .
70
